koff values for the binders below.
target_or_system: T1, Fusion protein of extracellular domain of human TIGIT and His-tag (human TIGIT ECD-his) (human)
T1 chain: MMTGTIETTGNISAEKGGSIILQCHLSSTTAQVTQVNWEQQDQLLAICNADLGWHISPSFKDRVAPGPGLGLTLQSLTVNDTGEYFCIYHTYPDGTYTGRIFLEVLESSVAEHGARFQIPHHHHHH
experiment: BIAcore
Dear colleague, please return just the value in s⁻¹, with no unit written.

Examples with their reported koff follow.
TIGIT-CHI-006 (antibody, V domains shown, Human-mouse chimeric antibody) VH: EVQLQESGPGLAKPSQTPSLTCSVTGYSMTSDYWNWIRKFPGNKLEYMGYISYSGRTYYNPSLKSRISITRDTSKNQFYLQLNSVTTEDTATYYCARGDYSNYGGAMYDWGQGTSVTVSS VL: DIVMTQSHKFMSTSVGDRVSITCRASQGVSTTIAWYQQKPGQSPKLLIYSASYRYTGVPDRFTGSGSGTDFTFTISGVQAEDLAVYYCQQYYSSPFTFGGGTKLEIK    0.000162
TIGIT-006-H4L1 (antibody, V domains shown, Humanized anti-TIGIT antibody) VH: EVQLQESGPGLVKPSETLSLTCAVSGYSMTSDYWNWIRQPPGKKLEWMGYISYSGRTYYNPSLKSRITISRDTSKNQFSLKLSSVTAADTAVYYCARGDYSNYGGAMYDWGQGTTVTVSS VL: DIVMTQTPLSLSVTPGQPASISCRASQGVSTTIAWYLQKPGQSPQLLIYSASYRYTGVPDRFSGSGSGTDFTLKISRVEAEDVGVYYCQQYYSSPFTFGGGTKVEIK    0.000258

QUERY: What does the data say about its koff? Entry: TIGIT-002-H3L3 (antibody, V domains shown, Humanized anti-TIGIT antibody) VH: EVQLQESGPGLVKPSETLSLTCAVSGYSITSDSWNWIRQPPGKKLEWMGYISYSGNTYYNPSLKSRITISRDTSKNQFSLKLSSVTAADTAVYYCARLDFSNYGGAVDYWGQGTTVTVSS VL: DIVMTQSPDSLAVSLGERATINCKASQNVRTAVAWYQQKPGQSPKLMIYSASYRYTGVPDRFSGSGSGTDFTLTISSLQAEDVAVYYCQQYYTTPWTFGGGTKVEIK
RESULT: 0.000852
